# experimentSummary: Delayed type hypersensitivity (DTH) testing
# Format: in vivo, human
# conditionDetails: patient 016; 48 hours following intradermal injection of individual peptide; after four vaccinations
# Induration area, DTH testing annotations
Hi! Could you send only the number? It should be in mm^2, unit omitted.

Some solved cases for reference:
substance="H-LEWMGIINPSGGSANYAPKFKGRLTMS-OH [Peptide 1, Heavy CDR2 of human anti-p53 antibody with N-terminus specificity]" property="Induration area, DTH testing" unitabbreviation=mm^2 numericreadout=104
substance="H-LLIYLGSTRASGVPDR-OH [Peptide 7, Light CDR2 of human anti-p53 antibody with central domain specificity]" property="Induration area, DTH testing" unitabbreviation=mm^2 numericreadout=39

Then this substance:
Q: Given H-LEWVGFIRSKAYGAATAYAASMKGRVTI-OH [Peptide 5, Heavy CDR2 of human anti-p53 antibody with central domain specificity] , respond with its Induration area, DTH testing.
A: 269

====

# experimentSummary: Delayed type hypersensitivity (DTH) testing
# Assay type: in vivo, human
# conditionDetails: patient 017; 48 hours following intradermal injection of individual peptide; after four vaccinations
# Induration area, DTH testing annotations
Hi! Could you send only the number? It should be in mm^2, unit omitted.

Some solved cases for reference:
substance="H-AVYYCLLQALKHWGQGT-OH [Peptide 2, Heavy CDR3 of human anti-p53 antibody with N-terminus specificity]" unitabbreviation=mm^2 numericreadout=71
substance="H-LEWMGIINPSGGSANYAPKFKGRLTMS-OH [Peptide 1, Heavy CDR2 of human anti-p53 antibody with N-terminus specificity]" unitabbreviation=mm^2 numericreadout=24
substance="H-GVYYCMQGLQTPYTFGEGT -OH (H-GVYYCMQGLQTPYTFGEGT-OH) [Peptide 8, Light CDR3 of human anti-p53 antibody with central domain specificity]" unitabbreviation=mm^2 numericreadout=44

Then this substance:
Q: Given H-LEWVGFIRSKAYGAATAYAASMKGRVTI-OH [Peptide 5, Heavy CDR2 of human anti-p53 antibody with central domain specificity] , respond with its Induration area, DTH testing.
A: 373
